- Test system: NS-20Y (mouse neuroblastoma cells)
- procedure.details: Activity on NS-20Y cells: appearance of neurites
- Type: cell-based
- conditions.used: 24 hours, 0.4 mM
endpoint: Number of cells in which neurites appeared/total number of cells

Use these answered entries as a reference point.
smiles_input=CNc1cc(C)nc(N2CCCCC2)n1 observed_measurement=4/50
smiles_input=CN(C(=O)c1ccccc1)c1nc(N2CCC(c3ccccc3)CC2)ncc1F observed_measurement=7/50
smiles_input=CN(C(=O)c1ccccc1)c1nccc(N2CCCCC2)n1 observed_measurement=7/50
smiles_input=CN(C(=O)c1ccccc1)c1ccnc(N2CCCCC2)n1 observed_measurement=42/50
smiles_input=O=C(c1ccccc1)N(Cc1ccccc1)c1ccnc(N2CCC(c3ccccc3)CC2)n1 observed_measurement=23/50
smiles_input=Cc1cnc(N2CCC(c3ccccc3)CC2)nc1N(C)C(=O)c1ccccc1 observed_measurement=16/50
smiles_input=CN(C(=O)c1ccc([N+](=O)[O-])cc1)c1ccnc(N2CCC(c3ccccc3)CC2)n1 observed_measurement=8/48
smiles_input=CNc1nc(N2CCCCC2)ncc1C observed_measurement=7/48

Batch: Number of cells in which neurites appeared/total number of cells for all items listed.
1. Cc1cc(N(C)C(=O)c2ccccc2)nc(N2CCC(c3ccccc3)CC2)n1
2. CC(=O)N(C)c1nc(N2CCC(c3ccccc3)CC2)ncc1C

1: 30/53; 2: 11/50

Batch: Number of cells in which neurites appeared/total number of cells for all items listed.
1. CC(=O)N(C)c1cc(C)nc(N2CCCCC2)n1
2. CN(C(=O)c1ccc(F)cc1)c1ccnc(N2CCC(c3ccccc3)CC2)n1
3. CNc1ccnc(N2CCCCC2)n1

1: 8/50; 2: 6/50; 3: 9/50

###

- procedure.details: Acute toxicity on mice
- Format: in vivo
- conditions.used: mouse, in vivo, ip, 24 hours after administration; read-out: Estimated LD50
endpoint: LD50 at 24 h

Use these answered entries as a reference point.
compound="CN(C(=O)N1CCCCC1)c1ccnc(N2CCC(c3ccccc3)CC2)n1 [Compound 2210]" observed_measurement="500 to 1000 mg/kg"
compound="CN(C(=O)c1ccc(N)cc1)c1ccnc(N2CCC(c3ccccc3)CC2)n1 [Compound 2182]" observed_measurement="500 to 1000 mg/kg"
compound="CN(C(=O)c1ccco1)c1nccc(N2CCC(c3ccccc3)CC2)n1 [Compound 684]" observed_measurement="500 to 1000 mg/kg"
compound="CC(=O)N(C)c1ccnc(N2CCC(c3ccccc3)CC2)n1 [Compound 208]" observed_measurement="> 1000 mg/kg"
compound="CCN(CC)C(=O)N(C)c1ccnc(N2CCC(c3ccccc3)CC2)n1 [Compound 2302]" observed_measurement="500 to 1000 mg/kg"

Now examine the next entry.
Recorded LD50 at 24 h for CN(C(=O)Oc1ccccc1)c1ccnc(N2CCC(c3ccccc3)CC2)n1 [Compound 2334] , please?
> 1000 mg/kg
